Tested on: adjuvant-induced arthritis (uninjected hind paw)
Assay Remarks: Developing Adjuvant-Induced Arthritis Test in Rats
Type: in vivo, male Lewis-Wistar rats
Measurement Parameters: po, 720 h; 25 mg/kg rat weight × 29, p.o. once daily; AUC days 16-30; read-out: % Inhibition of Uninjected Paw Volume Inflammation, Days 16-30
Structures can show the parent of a compound that is named as a salt.
Reported Endpoint: inhibition in vivo at 25 mg/kg

1. CC(C)NCc1cc(C(C)(C)C)c(O)c(C(C)(C)C)c1 [hydrochloride]    4.9%
2. CC(C)(C)c1cc(CN2CCOCC2)cc(C(C)(C)C)c1O    40.6%
3. CC(C)(C)NCc1cc(C(C)(C)C)c(O)c(C(C)(C)C)c1.Cl [hydrochloride]    3.9%
4. CCNCc1cc(C(C)(C)C)c(O)c(C(C)(C)C)c1.Cl [hydrochloride]    96.5%

# credit: patent US5393786A
